Test: TEAD-YAP interaction inhibition, primary screen, TEAD-YAP interaction inhibitor project, luminescence, HEK-TIYL cells (AID 1259422);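 note: 0% = median of test compound wells and 100% = reference inhibitor wells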
Settings: TEAD-Gal4/YAP UAS-luciferase luminescence, at 9.12 µM
In all, about 640,000 compounds went through this assay and about 9,300 (1.5%) were called active. Cut-off read from the data, not from the text of the source: active = inhibition above about 32%; inactive = the rest. This excerpt belongs to a sample that is enriched for actives.
Could you please pick one outcome from this set? true for active, false for inactive

| MOLECULE | CLASS LABEL |
| --- | --- |
| Cc1cc(NC(=O)c2cccn(OCc3ccc(F)cc3)c2=O)no1 | false |
| COc1ccc(-c2cccc(C(=O)Nc3ccc(Oc4ccccc4)cc3)n2)cn1 | false |
| O=C(Nc1cccc2ncccc12)c1sc2ccccc2c1Cl | false |
| COc1ccc(C2=N/C(=C\c3cc(OC)c(OC)c(OC)c3)C(=O)O2)c(Cl)c1 | false |
| CC(Nc1nc2c(c(=O)[nH]c(=O)n2C)n1Cc1ccccc1)c1ccccc1 (configuration not stated) | false |

Query: Tell me the assay call for COc1ccc(/C=C2\Oc3cc(OC(=O)C4CC4)cc(C)c3C2=O)c(OC)c1OC please.
Result: false

Query: Which outcome was entered for the molecule C=CCn1c(SCC(=O)N2CCOCC2)nc2scc(-c3ccccc3Cl)c2c1=O in this test?
Result: true

* * *

Experiment: TEAD-YAP interaction inhibition, primary screen, TEAD-YAP interaction inhibitor project, luminescence, HEK-TIYL cells (AID 1259422);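 note: 0% = median of test compound wells and 100% = reference inhibitor wells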
Settings: TEAD-Gal4/YAP UAS-luciferase luminescence, at 9.12 µM, active compounds read high
Among all 640,000 compounds or so, about 9,300 (1.5%) were called active. What follows is part of a selection rich in actives, with near analogues and random picks from the rest.
ENDPOINT LABEL: inhibition (%)
Answers are plain numbers, in %.

Look at each compound and report its inhibition.
1. C=CCN1C(=O)S/C(=C/c2ccccc2F)C1=O
2. O=C(CN1C(=O)COc2ccc(Cl)cc21)Nc1ccccc1F

Result:
1: -54.7; 2: 3.36

* * *

Experiment: TEAD-YAP interaction inhibition, primary screen, TEAD-YAP interaction inhibitor project, luminescence, HEK-TIYL cells (AID 1259422);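 note: 0% = median of test compound wells and 100% = reference inhibitor wells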
Settings: TEAD-Gal4/YAP UAS-luciferase luminescence, at 9.12 µM
In all, about 640,000 compounds went through this assay and about 9,300 (1.5%) were called active. Cut-off read from the data, not from the text of the source: active = inhibition above about 32%; inactive = the rest. The full list was thinned out, with actives kept by preference.
Reply using exactly one outcome from Y for active, N for inactive

| MOLECULE | CLASS LABEL |
| --- | --- |
| N#CC1=C(N)Oc2ccc3ccccc3c2C1c1ccc(F)cc1 (configuration not stated) | N |
| O=[N+]([O-])c1ccc(OCc2nnc(SCCN3CCOCC3)n2-c2ccccc2)cc1 | N |
| CCOc1ccc(NC(=O)/C(C#N)=C\c2ccc(O)cc2)cc1 | N |
| Cc1ccc(CCC(=O)Nc2ncc(Cc3cc(Cl)ccc3Cl)s2)o1 | Y |
| O=C1CN(c2ccccc2F)C(=O)CN1/N=C/c1ccccc1Cl | N |
| CCOc1ccc(CN2CCN(Cc3cc(OC)ccc3O)CC2)cc1 | N |
| c1ccc(Cc2nn3c(Cn4cnc5ccccc54)nnc3s2)cc1 | N |
| CC(=O)N1CCc2c(sc(NC(=O)CCS(=O)(=O)c3ccccc3)c2C#N)C1 | N |
| CCn1c(COc2ccccc2)nnc1Sc1ccc([N+](=O)[O-])cc1C=O | Y |
| COc1ccc(Cl)cc1NC(=O)CC1C(=O)NCCN1C(=S)Nc1ccccc1 (configuration not stated) | N |

Query: What did this assay record as the result for CC1CCN(C2=C(NC3CCCC3)C(=O)c3ccccc3C2=O)CC1 ?
Result: Y

Query: Which outcome was entered for the molecule CCCn1nnnc1NC(=S)NC(=O)c1cc2ccccc2o1 in this test?
Result: Y
